For each record, write down the corresponding IC50 of pERK inhibition (AlphaScreen SureFire) in NCI-H1581 cells.
- Study system: FGFR1 on tumour cells (UniProt P11362 22-822)
- Sequence (P11362 22-822): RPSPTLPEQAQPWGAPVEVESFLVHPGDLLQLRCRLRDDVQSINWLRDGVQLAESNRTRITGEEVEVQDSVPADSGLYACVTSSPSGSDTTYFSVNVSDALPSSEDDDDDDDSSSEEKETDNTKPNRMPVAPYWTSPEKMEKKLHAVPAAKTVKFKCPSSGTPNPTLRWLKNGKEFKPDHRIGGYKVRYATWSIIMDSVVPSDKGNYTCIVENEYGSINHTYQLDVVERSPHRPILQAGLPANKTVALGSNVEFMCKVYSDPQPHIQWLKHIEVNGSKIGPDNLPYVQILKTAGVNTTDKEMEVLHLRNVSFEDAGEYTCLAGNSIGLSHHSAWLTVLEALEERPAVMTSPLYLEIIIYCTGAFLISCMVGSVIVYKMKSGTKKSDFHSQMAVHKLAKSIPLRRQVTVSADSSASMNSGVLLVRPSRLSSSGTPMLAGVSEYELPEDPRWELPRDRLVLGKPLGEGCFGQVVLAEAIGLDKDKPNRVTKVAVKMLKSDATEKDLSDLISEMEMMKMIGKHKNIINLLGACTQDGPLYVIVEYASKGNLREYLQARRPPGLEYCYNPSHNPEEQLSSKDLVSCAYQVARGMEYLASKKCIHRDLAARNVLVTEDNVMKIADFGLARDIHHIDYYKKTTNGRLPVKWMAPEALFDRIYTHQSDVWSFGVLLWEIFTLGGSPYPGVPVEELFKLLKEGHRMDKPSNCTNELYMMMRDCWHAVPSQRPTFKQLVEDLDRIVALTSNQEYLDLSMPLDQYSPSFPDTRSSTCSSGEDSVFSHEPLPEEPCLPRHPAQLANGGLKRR
- Method notes: cell-based or functional assay
The reply should contain only the number, in nM.

Name the reported IC50 of pERK inhibition (AlphaScreen SureFire) in NCI-H1581 cells value associated with the binder Ab92 (antibody, human IgG2, kappa, V domains shown, format in the assays not spelled out) VH: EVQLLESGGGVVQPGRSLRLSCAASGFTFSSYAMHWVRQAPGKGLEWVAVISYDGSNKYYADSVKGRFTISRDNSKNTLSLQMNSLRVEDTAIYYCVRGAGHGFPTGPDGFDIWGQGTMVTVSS VL: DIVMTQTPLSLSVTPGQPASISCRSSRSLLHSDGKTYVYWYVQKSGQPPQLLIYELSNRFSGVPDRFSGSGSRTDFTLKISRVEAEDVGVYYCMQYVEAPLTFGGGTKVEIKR
1.91

Name the reported IC50 of pERK inhibition (AlphaScreen SureFire) in NCI-H1581 cells value associated with the binder Ab29 (antibody, human IgG2, kappa, V domains shown, format in the assays not spelled out) VH: EVQLLESGGGVVQPGRSLRLSCAASGFTFSSYAMHWVRQAPGKGLEWVAVISYDGSNKYYADSVKGRFTISRDNSKNTLSLQMNSLRVEDTAIYYCVRGAGLGWPYGPDGFDIWGQGTMVTVSS VL: DIVMTQTPLSLSVTPGQPASISCTSSRSLLHSDGKTYVYWYVQKSGQPPQLLIYELSNRFSGVPDRFSGSGSRTDFTLKISRVEAEDVGVYYCMQYVEAPLTFGGGTKVEIKR
0.54

Name the reported IC50 of pERK inhibition (AlphaScreen SureFire) in NCI-H1581 cells value associated with the binder Ab90 (antibody, human IgG2, kappa, V domains shown, format in the assays not spelled out) VH: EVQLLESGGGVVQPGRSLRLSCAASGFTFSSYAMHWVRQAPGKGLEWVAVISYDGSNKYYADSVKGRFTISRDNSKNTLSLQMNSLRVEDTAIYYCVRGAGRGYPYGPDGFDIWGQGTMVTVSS VL: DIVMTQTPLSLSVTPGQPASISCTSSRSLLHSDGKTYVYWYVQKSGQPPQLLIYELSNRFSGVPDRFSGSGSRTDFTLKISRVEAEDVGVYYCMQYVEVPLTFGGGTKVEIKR
0.715

Name the reported IC50 of pERK inhibition (AlphaScreen SureFire) in NCI-H1581 cells value associated with the binder Ab19 (antibody, human IgG2, kappa, V domains shown, format in the assays not spelled out) VH: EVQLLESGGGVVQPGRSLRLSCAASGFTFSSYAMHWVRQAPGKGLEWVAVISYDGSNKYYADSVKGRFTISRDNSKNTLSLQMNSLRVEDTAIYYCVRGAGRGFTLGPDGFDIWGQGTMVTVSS VL: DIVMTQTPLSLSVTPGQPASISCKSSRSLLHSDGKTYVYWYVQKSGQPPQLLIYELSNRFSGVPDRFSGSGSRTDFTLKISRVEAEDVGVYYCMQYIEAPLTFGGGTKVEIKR
1.01

Name the reported IC50 of pERK inhibition (AlphaScreen SureFire) in NCI-H1581 cells value associated with the binder Ab32 (antibody, human IgG2, kappa, V domains shown, format in the assays not spelled out) VH: EVQLLESGGGVVQPGRSLRLSCAASGFTFSSYAMHWVRQAPGKGLEWVAVISYDGSNKYYADSVKGRFTISRDNSKNTLSLQMNSLRVEDTAIYYCVRGAGLGFTYGPDGFDIWGQGTMVTVSS VL: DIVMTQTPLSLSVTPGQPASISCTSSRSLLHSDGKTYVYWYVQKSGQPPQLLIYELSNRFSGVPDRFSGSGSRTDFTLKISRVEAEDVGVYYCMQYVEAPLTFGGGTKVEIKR
2.55

Name the reported IC50 of pERK inhibition (AlphaScreen SureFire) in NCI-H1581 cells value associated with the binder Ab15 (antibody, human IgG2, kappa, V domains shown, Format in each assay not spelled out; also called FGF#26) VH: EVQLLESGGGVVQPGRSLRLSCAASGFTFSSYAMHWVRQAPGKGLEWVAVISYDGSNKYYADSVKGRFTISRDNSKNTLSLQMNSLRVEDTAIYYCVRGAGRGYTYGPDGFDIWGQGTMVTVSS VL: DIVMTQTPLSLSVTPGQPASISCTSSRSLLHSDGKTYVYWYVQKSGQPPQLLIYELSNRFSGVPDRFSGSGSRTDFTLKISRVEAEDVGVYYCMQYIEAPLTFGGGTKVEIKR
4.12

Name the reported IC50 of pERK inhibition (AlphaScreen SureFire) in NCI-H1581 cells value associated with the binder Ab34 (antibody, human IgG2, kappa, V domains shown, format in the assays not spelled out) VH: EVQLLESGGGVVQPGRSLRLSCAASGFTFSSYAMHWVRQAPGKGLEWVAVISYDGSNKYYADSVKGRFTISRDNSKNTLSLQMNSLRVEDTAIYYCVRGAGRGYTRGPDGFDIWGQGTMVTVSS VL: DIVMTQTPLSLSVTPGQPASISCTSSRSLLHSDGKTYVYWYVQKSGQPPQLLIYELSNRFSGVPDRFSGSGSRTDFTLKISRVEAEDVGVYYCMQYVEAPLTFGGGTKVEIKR
4.83

Name the reported IC50 of pERK inhibition (AlphaScreen SureFire) in NCI-H1581 cells value associated with the binder Ab23 (antibody, human IgG2, V domains shown, Format in the assays not spelled out) VH: EVQLLESGGGVVQPGRSLRLSCAASGFTFSSYAMHWVRQAPGKGLEWVAVISYDGSNKYYADSVKGRFTISRDNSKNTLSLQMNSLRVEDTAIYYCVRGAGRGLTYGPDGFDIWGQGTMVTVSS VL: DIVMTQTPLSLSVTPGQPASISCKSSRSLLHSDGKTYVYWYVQKSGQPPQLLIYELSNRFSGVPDRFSGSGSRTDFTLKISRVEAEDVGVYYCMQYIEAPLTFGGGTKVEIK
3.04

Name the reported IC50 of pERK inhibition (AlphaScreen SureFire) in NCI-H1581 cells value associated with the binder Ab27 (antibody, human IgG2, kappa, V domains shown, format in the assays not spelled out) VH: EVQLLESGGGVVQPGRSLRLSCAASGFTFSSYAMHWVRQAPGKGLEWVAVISYDGSNKYYADSVKGRFTISRDNSKNTLSLQMNSLRVEDTAIYYCVRGAGRGYTLGPDGFDIWGQGTMVTVSS VL: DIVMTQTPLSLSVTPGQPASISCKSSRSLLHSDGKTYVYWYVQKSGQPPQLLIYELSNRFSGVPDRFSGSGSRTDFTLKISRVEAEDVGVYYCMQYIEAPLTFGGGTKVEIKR
1.77
